target: Tyrosine-protein kinase Fes/Fps (Homo sapiens); assay: Inhibition of FES (unknown origin) expressed in HEK293T cells using NanoGlo as substrate incubated for 20 hrs by NanoBRET assay; type: cell-based
Sequence (P07332 whole entry): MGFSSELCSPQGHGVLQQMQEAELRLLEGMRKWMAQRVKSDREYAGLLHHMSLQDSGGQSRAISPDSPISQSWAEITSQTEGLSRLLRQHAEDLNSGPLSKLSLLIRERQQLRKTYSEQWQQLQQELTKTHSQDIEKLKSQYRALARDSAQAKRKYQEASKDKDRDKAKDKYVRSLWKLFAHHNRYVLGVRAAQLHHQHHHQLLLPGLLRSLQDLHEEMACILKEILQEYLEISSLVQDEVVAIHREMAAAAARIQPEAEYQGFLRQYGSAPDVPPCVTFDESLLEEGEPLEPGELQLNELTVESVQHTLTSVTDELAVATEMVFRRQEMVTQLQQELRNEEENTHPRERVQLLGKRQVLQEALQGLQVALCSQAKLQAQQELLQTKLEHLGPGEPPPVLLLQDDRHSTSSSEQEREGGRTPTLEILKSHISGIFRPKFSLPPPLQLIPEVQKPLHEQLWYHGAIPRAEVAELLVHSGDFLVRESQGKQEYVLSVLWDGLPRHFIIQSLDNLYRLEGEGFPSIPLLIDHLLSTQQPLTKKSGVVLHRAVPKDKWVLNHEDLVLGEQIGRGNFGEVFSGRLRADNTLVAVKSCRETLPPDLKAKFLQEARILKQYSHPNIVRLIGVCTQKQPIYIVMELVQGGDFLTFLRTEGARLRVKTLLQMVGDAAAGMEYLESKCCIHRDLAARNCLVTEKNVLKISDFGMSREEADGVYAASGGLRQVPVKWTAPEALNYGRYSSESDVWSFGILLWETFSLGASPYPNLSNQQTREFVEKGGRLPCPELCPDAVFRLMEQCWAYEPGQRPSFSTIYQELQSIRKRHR
pEC50: −log10 of the molar value.
observed_property: pEC50

Which pEC50 is reported with Tyrosine-protein kinase Fes/Fps (Homo sapiens) for this entry: Cc1cccc(-c2ccc(-c3cc4cnc(NC(CO)CO)nc4n(CCCCN)c3=O)c(Cl)c2)n1 ? < 4.30

* * *

target: Serine/threonine-protein kinase Nek2 (Homo sapiens); experiment: Inhibition of NEK2 (unknown origin) expressed in HEK293T cells using NanoGlo as substrate incubated for 20 hrs by NanoBRET assay
Sequence (P51955 whole entry): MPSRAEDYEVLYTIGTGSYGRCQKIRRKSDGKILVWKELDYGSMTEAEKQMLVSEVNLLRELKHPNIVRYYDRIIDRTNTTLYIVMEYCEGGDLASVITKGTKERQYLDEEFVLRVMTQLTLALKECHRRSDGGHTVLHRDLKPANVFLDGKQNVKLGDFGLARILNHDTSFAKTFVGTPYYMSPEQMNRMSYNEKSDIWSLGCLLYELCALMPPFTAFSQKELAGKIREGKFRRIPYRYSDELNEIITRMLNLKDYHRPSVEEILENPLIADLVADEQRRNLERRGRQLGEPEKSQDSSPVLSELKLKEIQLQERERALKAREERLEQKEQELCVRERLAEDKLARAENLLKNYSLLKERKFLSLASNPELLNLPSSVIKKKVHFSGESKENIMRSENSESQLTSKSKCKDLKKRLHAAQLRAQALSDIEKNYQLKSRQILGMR
pEC50: −log10 of the molar value.
observed_property: pEC50

Item under review: Cc1cccc(-c2ccc(-c3cc4cnc(NC(CO)CO)nc4n(CCCCN)c3=O)c(Cl)c2)n1 . Reported pEC50? < 5.30

* * *

Biological target: Serine/threonine-protein kinase 4 (Homo sapiens)
Sequence (Q13043 whole entry): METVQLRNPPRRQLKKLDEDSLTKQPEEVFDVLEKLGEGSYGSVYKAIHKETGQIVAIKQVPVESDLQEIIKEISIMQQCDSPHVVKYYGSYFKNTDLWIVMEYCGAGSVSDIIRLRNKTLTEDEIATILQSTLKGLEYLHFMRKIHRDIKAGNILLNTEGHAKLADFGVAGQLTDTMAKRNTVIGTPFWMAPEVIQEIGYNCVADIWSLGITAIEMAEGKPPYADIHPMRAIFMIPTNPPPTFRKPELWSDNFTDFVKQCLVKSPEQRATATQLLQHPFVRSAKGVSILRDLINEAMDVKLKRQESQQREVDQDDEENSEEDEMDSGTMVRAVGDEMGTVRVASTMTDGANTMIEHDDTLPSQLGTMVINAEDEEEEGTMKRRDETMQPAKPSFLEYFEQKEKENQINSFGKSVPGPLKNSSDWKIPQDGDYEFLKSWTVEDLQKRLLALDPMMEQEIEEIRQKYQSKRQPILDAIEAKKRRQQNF
observed_property: IC50 (nM)
Dear colleague, please return just the value in nM, with no unit written.

Dear colleague, I am looking for the recorded IC50 of the following compound: CN1C(=O)c2sccc2N(C)c2nc(Nc3ccc(S(N)(=O)=O)cc3)ncc21 162

* * *

target: Serine/threonine-protein kinase 24 (Homo sapiens); test: Binding affinity to recombinant MST3 (unknown origin) assessed as change in melting temperature by DSF analysis
Sequence (Q9Y6E0 whole entry, looked up): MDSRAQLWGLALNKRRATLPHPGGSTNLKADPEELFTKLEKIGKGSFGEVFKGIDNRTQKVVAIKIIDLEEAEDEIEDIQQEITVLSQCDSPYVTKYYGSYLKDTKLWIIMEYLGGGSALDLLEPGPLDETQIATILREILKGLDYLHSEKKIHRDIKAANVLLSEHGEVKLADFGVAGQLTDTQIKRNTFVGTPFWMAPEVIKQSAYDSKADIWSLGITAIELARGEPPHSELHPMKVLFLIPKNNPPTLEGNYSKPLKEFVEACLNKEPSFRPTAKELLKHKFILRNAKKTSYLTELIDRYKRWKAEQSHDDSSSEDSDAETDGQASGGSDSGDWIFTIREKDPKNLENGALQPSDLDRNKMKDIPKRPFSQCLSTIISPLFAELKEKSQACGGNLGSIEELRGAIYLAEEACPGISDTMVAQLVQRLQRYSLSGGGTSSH
observed_property: ΔTm (°C)
Give just the number in °C; leave the unit off.

Cc1cccc(-c2ccc(-c3cc4cnc(Nc5ccc(F)c(CO)c5)nc4n(CCCCN)c3=O)c(Cl)c2)n1: 16.9
COc1ccc(O)c(Nc2ncc3cc(-c4ccc(-c5cccc(C)n5)cc4Cl)c(=O)n(CCCCN)c3n2)c1: 11
CNc1ncc2cc(-c3ccc(-c4cccc(C)n4)cc3Cl)c(=O)n(C)c2n1: 3.7

Data request, read-out ΔTm, for CNc1ncc2cc(-c3ccc(-c4cccc(C)n4)cc3Cl)c(=O)[nH]c2n1 0.6

What ΔTm value was documented for this compound, COc1cc(N2CCN(C)CC2)ccc1Nc1ncc2cc(-c3ccc(-c4cccc(C)n4)cc3Cl)c(=O)n(CCCCN)c2n1 ? 13.5

Look at this compound and give its reported ΔTm. Cc1cccc(-c2ccc(-c3cc4cnc(NCCCN5CCNCC5)nc4n(CCCCN)c3=O)c(Cl)c2)n1 13

Query (compound): Cc1cccc(-c2ccc(-c3cc4cnc(NCCCN5CCOCC5)nc4n(CCCCN)c3=O)c(Cl)c2)n1 ; field requested: ΔTm 11.6

What does the record list as ΔTm for CNc1ncc2cc(-c3ccc(-c4cccc(C)n4)cc3Cl)c(=O)n(CCCCCO)c2n1 ? 6.6
